System: CCRIS mutagenicity, Ames/micronucleus/aberration tests
experimental.details: CCRIS mutagenicity studies
details: Test System: AMES SALMONELLA TYPHIMURIUM; Strain/Indicator: TA1535; Metabolic Activation: RAT, LIVER, S-9, AROCLOR 1254; Method: PREINCUBATION
Active and inactive are the calls of the source. No rule for the calls is given here.
Labels: active, inactive

{"columns": ["molecule", "category.label"],
 "data": [
  ["[Li+]", "inactive"],
  ["Clc1cccc(Cl)c1", "inactive"],
  ["CN(C)[C@@H]1C(=O)C(C(N)=O)=C(O)[C@@]2(O)C(=O)C3=C(O)c4c(O)cccc4[C@@](C)(O)[C@H]3[C@H](O)[C@@H]12", "inactive"],
  ["O=NN1CCCC1", "active"],
  ["O=[N+]([O-])c1ccc(Nc2ccc(Nc3ccccc3)c(S(=O)(=O)O)c2)c([N+](=O)[O-])c1", "inactive"],
  ["O=C(Cl)c1ccccc1F", "inactive"],
  ["CCC(Cl)C(Cl)C(Cl)CC(Cl)C(Cl)C(C)Cl (configuration not stated)", "inactive"]
]}

###

Tested on: CCRIS mutagenicity, Ames/micronucleus/aberration tests
experimental.details: CCRIS mutagenicity studies
details: Test System: AMES SALMONELLA TYPHIMURIUM; Strain/Indicator: TA97; Metabolic Activation: RAT, LIVER, S-9, AROCLOR 1254; Method: STANDARD PLATE
The source made the active and inactive calls. The rule behind the calls is not given here.

{"columns": ["molecule", "system", "mutagenic call"],
 "data": [
  ["O=S1OC[C@@H]2[C@H](CO1)[C@]1(Cl)C(Cl)=C(Cl)[C@@]2(Cl)C1(Cl)Cl (some centres not stated)", "CCRIS mutagenicity, Ames/micronucleus/aberration tests", "inactive; negative"],
  ["CC(=O)Nc1ccc2c(c1)Cc1ccccc1-2", "CCRIS mutagenicity, Ames/micronucleus/aberration tests", "inactive; negative"],
  ["CC(C)CCC[C@@H](C)[C@H]1CC[C@H]2[C@@H]3C[C@@H](O)[C@@]4(O)C[C@@H](O)CC[C@]4(C)[C@H]3CC[C@]12C", "CCRIS mutagenicity, Ames/micronucleus/aberration tests", "inactive; negative"],
  ["CC(C)Nc1nc(Cl)nc(NC(C)C)n1", "CCRIS mutagenicity, Ames/micronucleus/aberration tests", "inactive; negative"],
  ["Nc1ncnc2c1ncn2Cc1ccccc1", "CCRIS mutagenicity, Ames/micronucleus/aberration tests", "inactive; negative"],
  ["Nc1ncnc2c1ncn2[C@@H]1O[C@H](CO)[C@@H](O)[C@H]1O", "CCRIS mutagenicity, Ames/micronucleus/aberration tests", "inactive; negative"],
  ["COc1cc(-c2oc3cc(O)cc(O)c3c(=O)c2O)ccc1O", "CCRIS mutagenicity, Ames/micronucleus/aberration tests", "inactive; negative"],
  ["Cc1nc2c(c3[nH]c4ccccc4c13)C(=O)C=CC2=O", "CCRIS mutagenicity, Ames/micronucleus/aberration tests", "active; positive"],
  ["CC(Oc1ccc(Cl)cc1Cl)C(=O)O (configuration not stated)", "CCRIS mutagenicity, Ames/micronucleus/aberration tests", "inactive; negative"],
  ["CN(C)CCN(Cc1cccs1)c1ccccn1", "CCRIS mutagenicity, Ames/micronucleus/aberration tests", "inactive; negative"],
  ["CC1=CC(=O)c2nc(C)c3c([nH]c4ccccc43)c2C1=O", "CCRIS mutagenicity, Ames/micronucleus/aberration tests", "active; positive"],
  ["Nc1ncnc2nc[nH]c12", "CCRIS mutagenicity, Ames/micronucleus/aberration tests", "inactive; negative"]
]}

###

Tested on: CCRIS mutagenicity, Ames/micronucleus/aberration tests
experimental.details: CCRIS mutagenicity studies
details: Test System: AMES SALMONELLA TYPHIMURIUM; Strain/Indicator: TA104; Metabolic Activation: NONE; Method: PREINCUBATION
Calls of active or inactive are those of the source. The rule behind the calls is not given here.
Labels: active, inactive

{"columns": ["substance.smiles", "system", "category.label"],
 "data": [
  ["Oc1cccc(O)c1", "CCRIS mutagenicity, Ames/micronucleus/aberration tests", "inactive"],
  ["O=C(Cl)c1ccc(Cl)cc1", "CCRIS mutagenicity, Ames/micronucleus/aberration tests", "inactive"],
  ["CCOC(=O)N(CCC=O)N=O", "CCRIS mutagenicity, Ames/micronucleus/aberration tests", "active"],
  ["Cc1cc2ccccc2c2ccc3c(c12)C=CC(=O)C3=O", "CCRIS mutagenicity, Ames/micronucleus/aberration tests", "inactive"],
  ["CC(C)(C)c1ccc(O)c(O)c1", "CCRIS mutagenicity, Ames/micronucleus/aberration tests", "inactive"],
  ["CS", "CCRIS mutagenicity, Ames/micronucleus/aberration tests", "inactive"],
  ["N#CN=C(N)N", "CCRIS mutagenicity, Ames/micronucleus/aberration tests", "inactive"],
  ["OO", "CCRIS mutagenicity, Ames/micronucleus/aberration tests", "active"],
  ["O[C@@H]1[C@H]2O[C@H]2c2c(ccc3c2ccc2ccccc23)[C@H]1O", "CCRIS mutagenicity, Ames/micronucleus/aberration tests", "active"],
  ["NNc1ccc(C(=O)O)cc1", "CCRIS mutagenicity, Ames/micronucleus/aberration tests", "inactive"],
  ["O=C1CCCCCCCCCCCC(=O)OCCO1", "CCRIS mutagenicity, Ames/micronucleus/aberration tests", "inactive"],
  ["O=C(O)/C=C/C=C/C(=O)O", "CCRIS mutagenicity, Ames/micronucleus/aberration tests", "inactive"],
  ["CN1CCCC1=O", "CCRIS mutagenicity, Ames/micronucleus/aberration tests", "inactive"]
]}

###

System: CCRIS mutagenicity, Ames/micronucleus/aberration tests
experimental.details: CCRIS mutagenicity studies
details: Test System: AMES SALMONELLA TYPHIMURIUM; Strain/Indicator: TA100; Metabolic Activation: NONE; Method: STANDARD PLATE
Activity calls are given as the source filed them. How the calls were made is not given here.

{"columns": ["molecule", "system", "mutagenic call"],
 "data": [
  ["COc1ccc(C(=O)n2ncc(Cl)c(Cl)c2=O)cc1", "CCRIS mutagenicity, Ames/micronucleus/aberration tests", "inactive; negative"],
  ["COC(=O)c1ccc([N+](=O)[O-])o1", "CCRIS mutagenicity, Ames/micronucleus/aberration tests", "active; positive"],
  ["COc1ccc(-c2coc3cc(O)cc(O)c3c2=O)cc1", "CCRIS mutagenicity, Ames/micronucleus/aberration tests", "inactive; negative"],
  ["Cc1ccc(C)c2c1c1ccccc1n2C", "CCRIS mutagenicity, Ames/micronucleus/aberration tests", "inactive; negative"],
  ["CC(=O)OC1Cc2cc3cccc4ccc5ccc1c2c5c43 (stereo not drawn)", "CCRIS mutagenicity, Ames/micronucleus/aberration tests", "active; positive"],
  ["O=CN(O)c1ccc(Cl)cc1", "CCRIS mutagenicity, Ames/micronucleus/aberration tests", "inactive; negative"],
  ["O=c1c(O)c(-c2ccc(O)cc2)oc2cc(O)cc(O)c12", "CCRIS mutagenicity, Ames/micronucleus/aberration tests", "inactive; negative"],
  ["C[C@@](Cc1ccc(O)c(O)c1)(NN)C(=O)O", "CCRIS mutagenicity, Ames/micronucleus/aberration tests", "active; positive"]
]}

###

Tested on: CCRIS mutagenicity, Ames/micronucleus/aberration tests
experimental.details: CCRIS mutagenicity studies
details: Test System: AMES SALMONELLA TYPHIMURIUM; Strain/Indicator: TA98; Metabolic Activation: NONE; Method: STANDARD PLATE
Calls of active or inactive are those of the source. The rule behind the calls is not given here.
Labels: YES for active, NO for inactive

{"columns": ["molecule", "category.label"],
 "data": [
  ["CCCNc1snc2ccccc12", "NO"],
  ["CC[C@@]1(O)C[C@H](O)c2c(cc3c(c2O)C(=O)c2c(O)cccc2C3=O)[C@H]1C(=O)OC", "YES"],
  ["O=[N+]([O-])c1ccc(/C=C/c2cccc([N+](=O)[O-])c2)cc1", "YES"],
  ["NC(=O)c1csc([N+](=O)[O-])c1", "YES"],
  ["C[C@H]1CC[C@@H]2[C@@H](C)[C@H]3[C@H](C[C@H]4[C@@H]5CC=C6C[C@@H](O[C@@H]7O[C@H](CO)[C@@H](O[C@@H]8O[C@@H](C)[C@H](O)[C@@H](O)[C@H]8O)[C@H](O)[C@H]7O[C@@H]7O[C@@H](C)[C@H](O)[C@@H](O)[C@H]7O)CC[C@]6(C)[C@H]5CC[C@]34C)N2C1", "NO"],
  ["Cc1ccc(S(=O)(=O)NN)cc1", "NO"],
  ["Cc1occc(=O)c1[O-].Cc1occc(=O)c1[O-].Cc1occc(=O)c1[O-].[Cr+3]", "NO"],
  ["C=CCc1ccccc1N.[Cl-].[Cl-].[Pd+2]", "NO"],
  ["Cc1c([N+](=O)[O-])cnc2c1nc1c(C)cccn12", "YES"],
  ["COc1ccc(C(=O)n2ncc(Cl)c(Cl)c2=O)cc1", "NO"],
  ["O=S1(=O)OC(c2cc(Br)c(O)c(Br)c2)(c2cc(Br)c(O)c(Br)c2)c2c(Br)c(Br)c(Br)c(Br)c21", "NO"],
  ["Cc1nnc2n1-c1ccc(Cl)cc1C(c1ccccc1Cl)=NC2", "NO"],
  ["CCCCC(CC)COC(=O)COc1ccc(Cl)cc1Cl (stereo not given)", "NO"],
  ["CC[C@]1(O)C[C@@H]2CN(CCc3c([nH]c4ccccc34)[C@@](C(=O)OC)(c3cc4c(cc3OC)N(C)[C@H]3[C@@](O)(C(=O)OC)[C@H](OC(C)=O)[C@]5(CC)C=CCN6CC[C@]43[C@@H]65)C2)C1", "NO"],
  ["Nc1cc([N+](=O)[O-])c(N)cc1Cl", "YES"],
  ["CC1=C2C(=CO[C@H](C)[C@H]2C)C(=O)C(C(=O)O)=C1O", "NO"],
  ["Cc1c(/C=N/OCc2cccc([N+](=O)[O-])c2)c2cc([N+](=O)[O-])ccc2n1Cc1ccccc1", "YES"],
  ["O=[N+]([O-])c1cccc2c1ccc1ccccc12", "YES"],
  ["O=C1Nc2ccc([N+](=O)[O-])cc2C1=O", "YES"],
  ["CC(=O)Nc1ccc(C(=O)/C=C/c2ccccc2)cc1", "NO"],
  ["COc1cc(C=O)ccc1O", "NO"],
  ["CNC(=O)Nc1ccccc1", "NO"],
  ["CC1=CC(=O)c2nc(C)c3c([nH]c4ccccc43)c2C1=O", "YES"],
  ["C[C@@H]1C[C@@H]([C@H](O)CC2CC(=O)NC(=O)C2)C(=O)[C@@H](C)C1", "NO"],
  ["O=[N+]([O-])c1ccc2ccc3cccc4cc(O)c1c2c34", "YES"]
]}
